- experimentDescription: in vivo
- statedConditions: male, Sprague-Dawley, rat, po, 50 mg/kg
metricName: AUC (µg·h/mL)

CC(=O)NC[C@H]1CN(c2ccc(N3CCOCC3)c(F)c2)C(=O)O1 :: 282

* * *

- experimentDescription: in vivo
- statedConditions: male, Sprague-Dawley, rat, po, 50 mg/kg
metricName: AUC0-inf

CC(=O)NC[C@H]1CN(c2ccc(N3CCOCC3)c(F)c2)C(=O)O1 [Linezolid] :: 374 µg·h/mL

* * *

Reported Selectivity Index (SI) Erd/VERO is given for each of the following compounds.
- Test system: M. Tuberculosis Erdman or H37Rv vs VERO or HepG2 cells
- experimentDescription: Selectivity Index (mammalian cell IC50 / bacterial MIC)
- Parameters: species or system Mycobacterium tuberculosis
metricName: Selectivity Index (SI) Erd/VERO

Cl.NCCn1nnnc1-c1ccc(-c2ccc(N3C[C@H](CO)OC3=O)cc2F)cn1 [AKG-22] :: 57.7
CN(C)CCn1nnc(-c2ccc(-c3ccc(N4C[C@H](CN)OC4=O)cc3F)cn2)n1.Cl [AKG-28] :: 2766.7
CN(C)CCC1CCN(C[C@H]2CN(c3ccc(-c4ccc(-c5nnn(C)n5)nc4)c(F)c3)C(=O)O2)CC1 [AKG-6] :: 3.4
Cl.NCCCn1nnc(-c2ccc(-c3ccc(N4C[C@H](CO)OC4=O)cc3F)cn2)n1 [AKG-27] :: 11.2
Cl.Cl.NCCn1nnc(-c2ccc(-c3ccc(N4C[C@H](CN)OC4=O)cc3F)cn2)n1 [AKG-29] :: 439.6
CN(C)CCNc1ccc(-c2ccc(N3C[C@H](CO)OC3=O)cc2F)cn1 [AKG-12] :: 22.3
CCN(CC)CCCn1nnc(-c2ccc(-c3ccc(N4C[C@H](CN)OC4=O)cc3F)cn2)n1 [AKG-31] :: 223.0
CCN(CC)CCn1nnc(-c2ccc(-c3ccc(N4C[C@H](CNC(C)=O)OC4=O)cc3F)cn2)n1 [AKG-39] :: 402.0
CN(C)CCC1CCN(c2ccc(-c3ccc(N4C[C@H](CO)OC4=O)cc3F)cn2)CC1 [AKG-11] :: 8.0

* * *

- experimentDescription: in vivo
- statedConditions: male, Sprague-Dawley, rat
metricName: Vd (L/kg)

CC(=O)NC[C@H]1CN(c2ccc(N3CCOCC3)c(F)c2)C(=O)O1 :: 2.29

* * *

- experimentDescription: in vivo
- statedConditions: male, Sprague-Dawley, rat, po, 50 mg/kg
metricName: Tmax (h)

CC(=O)NC[C@H]1CN(c2ccc(N3CCOCC3)c(F)c2)C(=O)O1 :: 1

* * *

- Test system: human hepatocyte/liver (HepG2; ATCC #HB8065) cells
- experimentDescription: In vitro cytotoxicity (PrestoBlue cell viability), HepG2
- Format: cell-based
- statedConditions: Homo sapiens, HepG2, 72 h, read-out: Cell viability IC50, HepG2
Reported IC50 is given for each of the following compounds.
metricName: IC50

Cl.Cl.NCCn1nnc(-c2ccc(-c3ccc(N4C[C@H](CN)OC4=O)cc3F)cn2)n1 :: 74.4 µg/mL
CN(C)CCn1nnc(-c2ccc(-c3ccc(N4C[C@H](CN)OC4=O)cc3F)cn2)n1.Cl :: 13.4 µg/mL
CCN(CC)CCNC[C@H]1CN(c2ccc(-c3ccc(-c4nnn(C)n4)nc3)c(F)c2)C(=O)O1 :: 28.1 µg/mL
Cl.Cn1nnc(-c2ccc(-c3ccc(N4C[C@H](CN)OC4=O)cc3F)cn2)n1 :: 21.2 µg/mL
CN(C)CCCn1nnc(-c2ccc(-c3ccc(N4C[C@H](CN)OC4=O)cc3F)cn2)n1 :: 18.9 µg/mL
CN(C)CCNc1ccc(-c2ccc(N3C[C@H](CO)OC3=O)cc2F)cn1 :: 67.6 µg/mL
